Give efflux ratio at 2 h, 1 µM for every item shown.
Target: BCRP (Homo sapiens (Human))
Sequence (Q9UNQ0 whole entry): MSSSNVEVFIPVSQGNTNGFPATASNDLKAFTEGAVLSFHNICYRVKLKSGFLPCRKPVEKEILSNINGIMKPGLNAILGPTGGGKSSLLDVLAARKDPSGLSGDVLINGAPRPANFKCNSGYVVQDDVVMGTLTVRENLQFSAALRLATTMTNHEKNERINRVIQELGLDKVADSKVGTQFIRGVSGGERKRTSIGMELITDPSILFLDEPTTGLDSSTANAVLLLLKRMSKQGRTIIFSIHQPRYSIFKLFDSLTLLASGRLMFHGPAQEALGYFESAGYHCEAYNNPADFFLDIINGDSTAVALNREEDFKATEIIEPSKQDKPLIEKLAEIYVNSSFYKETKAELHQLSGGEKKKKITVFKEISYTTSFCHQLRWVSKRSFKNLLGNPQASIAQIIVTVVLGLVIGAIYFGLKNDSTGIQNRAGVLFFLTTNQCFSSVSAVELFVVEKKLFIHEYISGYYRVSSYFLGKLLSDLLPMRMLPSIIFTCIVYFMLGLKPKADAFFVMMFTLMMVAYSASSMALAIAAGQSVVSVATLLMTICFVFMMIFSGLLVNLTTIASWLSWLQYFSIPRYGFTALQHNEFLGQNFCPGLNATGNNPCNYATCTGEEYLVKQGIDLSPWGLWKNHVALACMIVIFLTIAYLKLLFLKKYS
Assay: BCRP MDCKII efflux assay (Assay 7)
Format: in vitro ADME
Settings: dog; efflux ratio Papp(B-A)/Papp(A-B), BCRP MDCKII cells; read-out: Assay 7 Pe Ratio
Protocol: Assay conditions included with and without the BCRP-specific inhibitor, KO143, at a concentration of 0.3 μM to ascertain the contribution of BCRP to the efflux value of the test compound. Final organic concentration in the assay was 1%.
Reply with just the number.

GET /value?item= C=CC(=O)N1C[C@@H]2C[C@H]1C[C@H]2c1ccc2ncnc(Nc3cc(C)c(Oc4ccc5c(c4)ncn5C)cc3F)c2n1 &field=efflux ratio at 2 h, 1 µM returns 4

GET /value?item= C=CC(=O)N1C2CCC1CN(c1ccc3ncnc(Nc4cc(C)c(Oc5ccn6ncnc6c5)cc4F)c3n1)C2 &field=efflux ratio at 2 h, 1 µM returns 10

GET /value?item= C=CC(=O)N1CCN(c2ccc3ncnc(Nc4ccc(Oc5cnc6c(c5)ncn6C)c(C)c4F)c3n2)C[C@@H]1C(F)F (racemic) &field=efflux ratio at 2 h, 1 µM returns 5.8
